Task for the reader: assign each of the following compounds its reported NET MDR1 ER.
target: MDR1 (Homo sapiens, UniProt P08183); construct: host or cells: MDCK (Madin-Darby Canine Kidney) cells expressing MDR1; experiment: MDCK-MDR1 efflux assay; type: in vitro ADME; details: 10 μM, MDCK-MDR1 and MDCK-WT monolayers, 1 hour
Sequence (P08183 whole entry): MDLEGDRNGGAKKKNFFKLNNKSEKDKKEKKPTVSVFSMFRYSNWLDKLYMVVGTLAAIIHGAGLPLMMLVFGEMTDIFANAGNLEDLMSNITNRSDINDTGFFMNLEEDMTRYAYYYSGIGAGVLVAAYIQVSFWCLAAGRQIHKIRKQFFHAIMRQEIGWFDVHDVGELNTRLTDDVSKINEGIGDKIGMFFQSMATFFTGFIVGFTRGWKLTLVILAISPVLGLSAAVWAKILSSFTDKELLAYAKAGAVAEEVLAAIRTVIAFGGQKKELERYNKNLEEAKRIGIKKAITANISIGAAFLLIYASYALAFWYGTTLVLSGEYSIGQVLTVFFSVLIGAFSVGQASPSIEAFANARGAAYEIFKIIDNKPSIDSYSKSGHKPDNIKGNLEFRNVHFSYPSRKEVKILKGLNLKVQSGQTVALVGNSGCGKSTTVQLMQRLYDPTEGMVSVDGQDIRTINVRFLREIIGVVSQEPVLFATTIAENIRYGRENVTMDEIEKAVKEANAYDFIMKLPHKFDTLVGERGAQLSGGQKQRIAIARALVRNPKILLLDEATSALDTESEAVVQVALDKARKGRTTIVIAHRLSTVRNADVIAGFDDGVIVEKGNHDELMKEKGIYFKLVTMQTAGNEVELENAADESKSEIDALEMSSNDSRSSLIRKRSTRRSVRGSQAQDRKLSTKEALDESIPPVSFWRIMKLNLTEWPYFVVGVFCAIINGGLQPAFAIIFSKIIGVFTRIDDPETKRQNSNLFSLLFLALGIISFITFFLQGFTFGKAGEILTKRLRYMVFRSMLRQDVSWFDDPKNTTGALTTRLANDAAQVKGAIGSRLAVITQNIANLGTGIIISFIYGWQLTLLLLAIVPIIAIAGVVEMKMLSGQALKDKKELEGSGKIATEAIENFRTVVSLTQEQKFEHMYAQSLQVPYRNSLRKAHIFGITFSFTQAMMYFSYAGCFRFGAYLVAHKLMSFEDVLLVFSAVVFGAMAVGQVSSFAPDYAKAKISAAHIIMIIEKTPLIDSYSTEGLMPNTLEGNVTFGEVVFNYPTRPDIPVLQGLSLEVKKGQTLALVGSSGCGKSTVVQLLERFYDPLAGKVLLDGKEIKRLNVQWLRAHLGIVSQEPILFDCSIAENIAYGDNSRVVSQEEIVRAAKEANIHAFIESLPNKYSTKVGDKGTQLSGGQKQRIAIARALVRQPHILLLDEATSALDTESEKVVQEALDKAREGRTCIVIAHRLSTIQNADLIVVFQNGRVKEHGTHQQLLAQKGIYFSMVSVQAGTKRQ
API note: the answer field is a bare number with no unit suffix.

MDR1 (Homo sapiens, UniProt P08183) / NET MDR1 ER / CCN1CCC(c2cc3c(F)cc(-c4cc(C)c5nc(C)cn5n4)cc3nn2)CC1 : value? 7.10

Lab note: need NET MDR1 ER for CC1(C)CC(n2nnc3cc(-c4ccc(-n5nccn5)cc4O)nnc32)CC(C)(C)N1 on MDR1 (Homo sapiens, UniProt P08183), anyone have it? 2.0

Hi! What's the reported NET MDR1 ER for CCN1CCC(c2cc(C)c3nc(-c4ccc5nn(C)cc5c4)cc(=O)n3c2)CC1 [HTT-D1] on MDR1 (Homo sapiens, UniProt P08183)? 11.8

----------
test: Rat toxicology, NOAEL; conditions: male, in vivo, from rat NOAEL, read-out: human equivalent dose (HED) estimated from the NOAEL
assay.endpoint: NOAEL
Please report the result as a number followed by the unit.

What NOAEL value was documented for this compound, CC1(C)CC(n2nnc3cc(-c4ccc(-n5nccn5)cc4O)nnc32)CC(C)(C)N1 [Compound 1] ? 0.97 mg/kg
